System Under Test: WRN [UniPro: Q14191 (WRN_HUMAN), N500-C946] (Homo sapiens (Human))
Sequence (Q14191 500-946): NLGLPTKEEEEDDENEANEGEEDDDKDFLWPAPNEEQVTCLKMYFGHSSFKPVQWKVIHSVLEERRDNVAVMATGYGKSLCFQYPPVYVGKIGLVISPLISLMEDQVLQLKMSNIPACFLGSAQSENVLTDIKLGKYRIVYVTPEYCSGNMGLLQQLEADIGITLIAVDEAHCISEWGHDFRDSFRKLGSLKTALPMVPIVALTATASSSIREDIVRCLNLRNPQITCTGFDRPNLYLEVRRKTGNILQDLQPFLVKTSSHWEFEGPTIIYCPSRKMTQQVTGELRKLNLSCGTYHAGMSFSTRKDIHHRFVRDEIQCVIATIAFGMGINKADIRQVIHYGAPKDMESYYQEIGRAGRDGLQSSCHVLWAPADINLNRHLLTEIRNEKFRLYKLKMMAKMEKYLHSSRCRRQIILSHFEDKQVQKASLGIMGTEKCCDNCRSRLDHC
Protocol Text: WRN unwinding assay (FORKF DNA, fluorescence)
Assay type: biochemical
Conditions Used: Table 14
Measured Endpoint: IC50

Smiles Representation: CCc1c(N2CCN(C(=O)CNC(=O)c3ccc(NC)cc3F)CC2)c(=O)n2nc(C3=CCOCC3)nc2n1CC(=O)Nc1ccc(C(F)(F)F)cc1Cl
System Under Test: WRN [UniPro: Q14191 (WRN_HUMAN), N500-C946] (Homo sapiens (Human))
Measured Endpoint: IC50
Result: 100 to 1000 nM

// query IC50 value for entry CCC(=O)N1CCN(c2c(CC)n(CC(=O)Nc3ccc(C(F)(F)F)cc3Cl)c3nc(C4=CCOCC4)nn3c2=O)CC1
< 100 nM

// query IC50 value for entry CCc1c(N2CCN(C(=O)CNC(=O)NCc3ccccc3F)CC2)c(=O)n2nc(C3=CCOCC3)nc2n1CC(=O)Nc1ccc(C(F)(F)F)cc1Cl
< 100 nM

// query IC50 value for entry CCc1c(N2CCN(C(=O)C(=O)Nc3ccccc3)CC2)c(=O)n2nc(C3=CCOCC3)nc2n1CC(=O)Nc1ccc(C(F)(F)F)cc1Cl
100 to 1000 nM

// query IC50 value for entry CCc1c(N2CCN(C(=O)c3c(O)nn4ccccc34)CC2)c(=O)n2nc(C3=CCOCC3)nc2n1CC(=O)Nc1ccc(C(F)(F)F)cc1Cl
< 100 nM

// query IC50 value for entry CCc1c(N2CCN(C(=O)CNC(=O)c3ccccc3F)CC2)c(=O)n2nc(C3=CCOCC3)nc2n1CC(=O)Nc1ncc(C(F)(F)F)s1
100 to 1000 nM

// query IC50 value for entry CCc1c(N2CCN(C(=O)c3cnc4ncnn4c3O)CC2)c(=O)n2nc(C3=CCOCC3)nc2n1CC(=O)Nc1ccc(C(F)(F)F)cc1Cl
> 1000 nM

// query IC50 value for entry CCc1c(N2CCN(C(=O)c3cnc4c(ccn4C)c3O)CC2)c(=O)n2nc(C3=CCOCC3)nc2n1CC(=O)Nc1ccc(C(F)(F)F)cc1Cl
< 100 nM

// query IC50 value for entry CCc1c(N2CCN(C(=O)CNC(=O)c3cncc(O)c3)CC2)c(=O)n2nc(C3=CCOCC3)nc2n1CC(=O)Nc1ccc(C(F)(F)F)cc1Cl
< 100 nM

// query IC50 value for entry CCc1c(N2CCN(C(=O)CNC(=O)c3cccc(O)c3)CC2)c(=O)n2nc(C3=CCOCC3)nc2n1CC(=O)Nc1ccc(C(F)(F)F)cc1Cl
< 100 nM

// query IC50 value for entry CCc1c(N2CCN(C(=O)CNC(=O)c3cc(C)no3)CC2)c(=O)n2nc(C3=CCOCC3)nc2n1CC(=O)Nc1ccc(C(F)(F)F)cc1Cl
< 100 nM

// query IC50 value for entry CCc1c(N2CCN(C(=O)C(=O)NOC)CC2)c(=O)n2nc(C3=CCOCC3)nc2n1CC(=O)Nc1ccc(C(F)(F)F)cc1Cl
< 100 nM

====

System Under Test: UniProtKB Q14191
Protocol Text: WRN unwinding assay (FORKF DNA, fluorescence)
Assay type: biochemical
Conditions Used: Table 14
pIC50: −log10 of the molar value.
pIC50 values by entry

Field: example entries. Status: answers known.
Smiles Representation: CCNC(=NCCCN(C)C)N1CCN(c2c(CC)n(CC(=O)Nc3ccc(C(F)(F)F)cc3C)c3nc(C4=CCOCC4)nn3c2=O)CC1
System Under Test: UniProtKB Q14191
pIC50: < 6.00
//
Smiles Representation: CCc1c(N2CCN(C(=O)CNC(=O)c3nccs3)CC2)c(=O)n2nc(N3CCOCC3)nc2n1CC(=O)Nc1ccc(C(F)(F)F)cc1Cl
System Under Test: UniProtKB Q14191
pIC50: > 7.00
//
Smiles Representation: CCc1c(N2CCN(C(=O)CNC(=O)c3ncc(C)s3)CC2)c(=O)n2nc(C3=CCOCC3)nc2n1CC(=O)Nc1ccc(C(F)(F)F)cc1Cl
System Under Test: UniProtKB Q14191
pIC50: > 7.00
//
Smiles Representation: CCc1c(N2CCN(C(=O)C3CC3)CC2)c(=O)n2nc(C3=CCOCC3)nc2n1CC(=O)Nc1ccc(C(F)(F)F)cc1Cl
System Under Test: UniProtKB Q14191
pIC50: 6.00 to 7.00
//
Smiles Representation: CCc1c(N2CCN(C(=O)CNC(=O)C(C)(C)C)CC2)c(=O)n2nc(C3=CCOCC3)nc2n1CC(=O)Nc1ccc(C(F)(F)F)cc1Cl
System Under Test: UniProtKB Q14191
pIC50: > 7.00
//
Smiles Representation: CCc1c(N2CCN(C(=O)c3nn(C)c(=O)[nH]c3=O)CC2)c(=O)n2nc(C3=CCOCC3)nc2n1CC(=O)Nc1ccc(C(F)(F)F)cc1Cl
System Under Test: UniProtKB Q14191
pIC50: > 7.00
//
Smiles Representation: CCc1c(N2CCN(C(=O)CNC(=O)c3ccc(F)c(NC)c3)CC2)c(=O)n2nc(N3CCOCC3)nc2n1CC(=O)Nc1ccc(C(F)(F)F)cc1Cl
System Under Test: UniProtKB Q14191
pIC50: > 7.00
//
Smiles Representation: CCc1c(N2CCN(C(=O)CNC(=O)c3cnc4c(ccn4C)c3O)CC2)c(=O)n2nc(C3=CCOCC3)nc2n1CC(=O)Nc1ccc(C(F)(F)F)cc1Cl
System Under Test: UniProtKB Q14191
pIC50: > 7.00

// query pIC50 value for entry CCOC(=O)NCC(=O)N1CCN(c2c(CC)n(CC(=O)Nc3ccc(C(F)(F)F)cc3Cl)c3nc(C4=CCOCC4)nn3c2=O)CC1
> 7.00

// query pIC50 value for entry CCc1c(N2CCN(C(=O)c3c[nH]c(=O)[nH]3)CC2)c(=O)n2nc(C3=CCOCC3)nc2n1CC(=O)Nc1ccc(C(F)(F)F)cc1Cl
6.00 to 7.00

// query pIC50 value for entry CCc1c(N2CCN(C(=O)C(=O)Nc3nccs3)CC2)c(=O)n2nc(N3CCOCC3)nc2n1CC(=O)Nc1ccc(C(F)(F)F)cc1Cl
> 7.00

// query pIC50 value for entry CCc1c(N2CCN(C(=O)c3cc4c(O)ccnc4o3)CC2)c(=O)n2nc(C3=CCOCC3)nc2n1CC(=O)Nc1ccc(C(F)(F)F)cc1Cl
> 7.00
